molecular target: UniProtKB Q96EB6; assay: Mass spectrometry based assay to identify modulators of SIRT1 activity (deacetylation of p53-based acetylated peptide substrate); type: biochemical; settings: SIRT1 activation
assay_endpoint: EC1.5

Below: 10 molecules and their reported EC1.5.
CC1(C)CN(C(=O)Nc2cncc(F)c2)c2nc(-c3cccc(F)c3)ccc2O1 [Compound 621]; B (EC1.5 1-25 μM)
O=C(Nc1nccs1)N1CCOc2ccc(-c3cccc(C(F)(F)F)c3)nc21 [Compound 500]; A (EC1.5<1.0 μM)
Cc1cc(-c2cccc(Cl)c2)nc2c1OCCN2C(=O)Nc1ccncc1 [Compound 686]; A (EC1.5<1.0 μM)
O=C(Nc1ccnc(N2CCC2)c1)N1CCCOc2ccc(-c3cccc(F)c3)nc21 [Compound 584]; B (EC1.5 1-25 μM)
Cc1cc(-c2cccc(C(F)(F)F)c2)nc2c1OCCN2C(=O)Nc1ccnc(N2CCC2)c1 [Compound 683]; A (EC1.5<1.0 μM)
CN(C)Cc1cccc(-c2ccc3c(n2)N(C(=O)Nc2cccnc2)CC(C)(C)O3)c1 [Compound 677]; B (EC1.5 1-25 μM)
Cc1cc(C)nc(NC(=O)N2CCOc3c(C)cc(-c4cccc(C(F)(F)F)c4)nc32)c1 [Compound 672]; A (EC1.5<1.0 μM)
CN1CCN(C(=O)Nc2cccc(CN3CCOCC3)n2)c2nc(-c3cccc(C(F)(F)F)c3)ccc21 [Compound 539]; A (EC1.5<1.0 μM)
Cc1cncc(NC(=O)N2CC(C)(C)Oc3ccc(-c4cccc(Cl)c4)nc32)c1 [Compound 600]; A (EC1.5<1.0 μM)
O=C(Nc1cncc(OCC(O)CO)n1)N1CCOc2ccc(-c3cccc(C(F)(F)F)c3)nc21 (stereo not shown) [Compound 696]; A (EC1.5<1.0 μM)

Asked: Need EC1.5, item Cc1cncc(NC(=O)N2CCCOc3ccc(-c4cccc(F)c4)nc32)c1 [Compound 581]
Given back: B (EC1.5 1-25 μM)

Asked: Need EC1.5, item Cc1cc(NC(=O)N2CCOc3ccc(-c4cccc(C(F)(F)F)c4)nc32)cc(C)n1 [Compound 556]
Given back: A (EC1.5<1.0 μM)

Asked: Need EC1.5, item O=C(Nc1ccncc1)N1CCCOc2ccc(-c3cccc(F)c3)nc21 [Compound 550]
Given back: B (EC1.5 1-25 μM)

Asked: Need EC1.5, item O=C(Oc1cccc(OCC(O)CO)c1)N1CCCc2ccc(-c3cccc(C(F)(F)F)c3)nc21 (stereo not shown) [Compound 641]
Given back: B (EC1.5 1-25 μM)

Asked: Need EC1.5, item Cc1cc(NC(=O)N2CC(C)(C)Oc3ccc(-c4cccc(N5CC[C@H](F)C5)c4)nc32)cc(C)n1 [Compound 658]
Given back: A (EC1.5<1.0 μM)

====

Examples of compounds with documented EC1.5 (concentration giving 1.5-fold activation) follow.
Biological target: SIRT1 (Homo sapiens, UniProt Q96EB6)
Sequence (Q96EB6 1-747): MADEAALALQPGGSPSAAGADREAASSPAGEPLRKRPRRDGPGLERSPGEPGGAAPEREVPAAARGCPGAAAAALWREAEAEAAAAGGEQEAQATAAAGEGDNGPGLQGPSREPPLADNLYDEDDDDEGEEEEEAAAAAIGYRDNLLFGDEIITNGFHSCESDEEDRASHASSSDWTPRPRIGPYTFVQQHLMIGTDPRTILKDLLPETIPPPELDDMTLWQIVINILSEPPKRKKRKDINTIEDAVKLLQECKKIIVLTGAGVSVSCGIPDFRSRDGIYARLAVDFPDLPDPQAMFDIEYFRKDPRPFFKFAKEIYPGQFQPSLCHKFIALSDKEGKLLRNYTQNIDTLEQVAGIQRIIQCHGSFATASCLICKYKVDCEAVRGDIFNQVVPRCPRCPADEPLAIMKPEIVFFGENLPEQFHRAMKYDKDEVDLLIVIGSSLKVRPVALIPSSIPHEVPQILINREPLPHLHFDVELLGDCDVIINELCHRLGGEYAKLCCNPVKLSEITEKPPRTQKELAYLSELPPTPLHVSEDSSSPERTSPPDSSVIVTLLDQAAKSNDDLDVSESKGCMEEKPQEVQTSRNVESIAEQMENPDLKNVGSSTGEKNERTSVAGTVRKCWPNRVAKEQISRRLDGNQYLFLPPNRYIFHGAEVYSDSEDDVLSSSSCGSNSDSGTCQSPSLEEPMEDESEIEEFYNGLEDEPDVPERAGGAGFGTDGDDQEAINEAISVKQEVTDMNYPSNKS
Assay: Mass spectrometry based assay to identify modulators of SIRT1 activity (deacetylation of p53-based acetylated peptide substrate)
Format: biochemical

Below: 3 compounds and their reported EC1.5 (concentration giving 1.5-fold activation).
Cc1cnccc1NC(=O)N1CCC(F)(F)c2ccc(-c3cccc(C(F)(F)F)c3)nc21; > 25 µM
O=C(Nc1ccccn1)N1CCc2ccc(-c3cccc(C(F)(F)F)c3)nc21; < 1 µM
O=C(Nc1ccncc1F)N1CCC(F)(F)c2ccc(-c3cccc(C(F)(F)F)c3)nc21; 1 to 25 µM

Now consider a different compound.
Asked: Need EC1.5 (concentration giving 1.5-fold activation), item Cc1cnccc1NC(=O)N1CCC(C)c2ccc(-c3cccc(C(F)(F)F)c3)nc21 (stereo not shown)
Given back: 1 to 25 µM

====

biological target: SIRT1 (Homo sapiens); test: Mass spectrometry based assay to identify modulators of SIRT1 activity (deacetylation of p53-based acetylated peptide substrate); type: biochemical
Examples of molecules with documented EC1.5 (concentration giving 1.5-fold activation) follow.

Below: 4 molecules and their reported EC1.5 (concentration giving 1.5-fold activation).
O=C(Nc1ccncc1)N1CCOc2c(N3CCNCC3)nc(-c3cccc(F)c3)nc21 [Compound 738]; > 25000 nM
O=C(Nc1ccncn1)N1CCOc2c(N3CCNCC3)nc(-c3cccc(F)c3)nc21; 1000 to 25000 nM
CCN1CCCN(C(=O)Nc2ccncc2)c2nc(-c3cccc(Cl)c3)ccc21; 1000 to 25000 nM
Cn1nccc1NC(=O)N1CCCOc2ccc(-c3cccc(Cl)c3)nc21; > 25000 nM

Asked: Need EC1.5 (concentration giving 1.5-fold activation), item CC1CCN(C(=O)Nc2ncccc2F)c2nc(-c3cccc(C(F)(F)F)c3)ccc21 (stereo not drawn)
Given back: 1000 to 25000 nM

Asked: Need EC1.5 (concentration giving 1.5-fold activation), item `CCN1C(=O)CCN(C(=O)Nc2cccc(OC[C@@H](O)CO)n2)c2nc(-c3cccc(Cl)c3)ccc21`
Given back: > 25000 nM

Asked: Need EC1.5 (concentration giving 1.5-fold activation), item `CC1(C)CCN(C(=O)Nc2cccnc2)c2nc(-c3cccc(Cl)c3)ccc2C1=O`
Given back: > 25000 nM

====

Examples of compounds with documented Emax follow.
Target: SIRT1 (Homo sapiens, UniProt Q96EB6)
Sequence (Q96EB6 1-747): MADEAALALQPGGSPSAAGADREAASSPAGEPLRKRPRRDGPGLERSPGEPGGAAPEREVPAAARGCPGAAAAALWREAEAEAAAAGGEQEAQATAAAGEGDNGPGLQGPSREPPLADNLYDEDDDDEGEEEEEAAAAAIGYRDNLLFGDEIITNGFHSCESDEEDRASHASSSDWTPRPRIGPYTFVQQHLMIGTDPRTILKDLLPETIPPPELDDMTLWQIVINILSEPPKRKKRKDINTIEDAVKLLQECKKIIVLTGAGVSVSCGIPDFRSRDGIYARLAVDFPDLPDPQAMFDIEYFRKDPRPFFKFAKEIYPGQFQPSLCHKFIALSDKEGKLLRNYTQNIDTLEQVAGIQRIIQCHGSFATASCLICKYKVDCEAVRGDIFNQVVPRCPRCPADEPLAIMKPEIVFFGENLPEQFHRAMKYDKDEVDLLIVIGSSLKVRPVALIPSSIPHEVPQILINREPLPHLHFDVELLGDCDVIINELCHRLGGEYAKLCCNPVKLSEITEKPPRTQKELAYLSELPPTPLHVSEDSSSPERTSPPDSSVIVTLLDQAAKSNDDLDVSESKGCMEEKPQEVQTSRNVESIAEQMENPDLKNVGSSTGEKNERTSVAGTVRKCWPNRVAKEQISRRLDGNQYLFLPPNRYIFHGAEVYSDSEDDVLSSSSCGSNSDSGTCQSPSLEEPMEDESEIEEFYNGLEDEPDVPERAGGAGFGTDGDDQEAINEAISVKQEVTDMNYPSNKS
Test: Mass spectrometry based assay to identify modulators of SIRT1 activity (deacetylation of p53-based acetylated peptide substrate)
Format: biochemical
Details: 25 min, SIRT1 activation, read-out: % FOLD ACT. (percent maximum fold activation)

Below: 2 compounds and their reported Emax.
COc1cc(NC(=O)N2CCCOc3ccc(-c4cccc(Cl)c4)nc32)nc(OC)n1; > 200%
Cc1csc(NC(=O)N2CCCOc3ccc(-c4cccc(N5CCCC5)c4)nc32)n1; ≤ 200%

Asked: Need Emax, item `CN1C(=O)CN(C(=O)Nc2cccc(N3CCOCC3)n2)c2nc(-c3cccc(C(F)(F)F)c3)ccc21`
Given back: > 200%

Asked: Need Emax, item `Cc1cc(C)nc(NC(=O)N2CCCc3ccc(-c4cccc(Cl)c4)nc32)c1`
Given back: > 200%

Asked: Need Emax, item `Cc1cc(C)nc(NC(=O)N2CCN(C)c3ccc(-c4cccc(C(F)(F)F)c4)nc32)c1`
Given back: ≤ 200%

Asked: Need Emax, item CC1CCN(C(=O)Nc2cccc(OC[C@@H](O)CO)n2)c2nc(-c3cccc(C(F)(F)F)c3)ccc21 (some centres unmarked)
Given back: > 200%

Asked: Need Emax, item `CN1C(=O)CN(C(=O)Nc2cncnc2)c2nc(-c3cccc(C(F)(F)F)c3)ccc21`
Given back: ≤ 200%

Asked: Need Emax, item `O=C(Nc1ccc(F)cn1)N1CCCC(F)(F)c2ccc(-c3cccc(Cl)c3)nc21`
Given back: ≤ 200%
